From: PubChem BioAssay (NCI)

Please respond with reported GI50 for every item in the list.
System: HOP-62 NSCLC
Test: NCI tumour cell line growth inhibition, 48 h

See these solved cases before continuing.
- Molecule: "CCC(CC)c1nc(Nc2ccc(C(=O)OC)cc2)c2ccccc2n1"
  GI50: "10.4 µM"
- Molecule: "Cc1cccc(-c2[nH]ncc2-c2ccc3ncccc3n2)n1"
  GI50: "9.59 µM"
- Molecule: "Cn1cc(C2=C(c3ccccc3[N+](=O)[O-])C(=O)NC2=O)c2ccccc21"
  GI50: "5.35 µM"

Asked: May I ask what GI50 has been recorded for CC[C@@H]1[C@@H](C)O[C@@](O)([C@@H](C)[C@H](O)[C@H](C)[C@H]2OC(=O)/C=C/C=C/[C@H](C)[C@@H]([C@@H](C)[C@@H](O)[C@H](C)[C@@]3(O)C[C@@H](O[C@H]4C[C@@H](O)[C@H](O)C(C)O4)[C@H](CC)[C@@H](C)O3)OC(=O)/C=C/C=C/[C@@H]2C)C[C@H]1O[C@@H]1C[C@@H](O)[C@H](O)C(C)O1 (some centres undefined) ?
Given back: 0.073 µM

----------
Test system: SNB-78 CNS
Assay: NCI tumour cell line growth inhibition, 48 h
Please respond with reported TGI for every item in the list.
Numbers only, in µM.

- Compound: "CC12OOC(c3ccccc31)c1c2ccc2ccccc12 (stereo not given)"
  TGI / µM: 21.8

Now for another entry.
Asked: May I ask what TGI has been recorded for Oc1ccc([Te]CCNCC[Te]c2ccc(O)cc2)cc1 ?
Given back: 78.6

----------
System: SF-295 CNS
Experiment: NCI tumour cell line growth inhibition, 48 h
Please respond with reported TGI for every item in the list.

See these solved cases before continuing.
- Compound: "O=C1C(Cl)N(c2cccc(Cl)c2)C1c1c[nH]c2ccccc12 (stereo unspecified)"
  TGI: "> 100 µM"
- Compound: "COc1c(C)cc(O)cc1C=O"
  TGI: "> 100 µM"
- Compound: "Nc1ccccc1Nc1ccccc1C(=O)[O-].Nc1ccccc1Nc1ccccc1C(=O)[O-].[Zn+2]"
  TGI: "> 100 µM"
- Compound: "O=S(=O)([O-])c1ccc(N=Cc2ccccc2[O-])cc1.O=S(=O)([O-])c1ccc(N=Cc2ccccc2[O-])cc1.[O]=[U+2]=[O]"
  TGI: "> 100 µM"
- Compound: "COc1nc2ccc(COc3ccc(C(=O)NC(CCC(=O)O)C(=O)O)cc3)cc2nc1OC (stereo unspecified)"
  TGI: "> 10 µM"

Now for another entry.
Asked: May I ask what TGI has been recorded for Cc1ccc2c(=O)cc(Cc3cccs3)[nH]c2n1 ?
Given back: > 100 µM

----------
Test system: SNB-19 CNS
Assay: NCI tumour cell line growth inhibition, 48 h; in the data active means GI50 below about 0.43 µM; inactive means the rest
Use one of these outcomes when replying: active, inactive

- Molecule: "NC1=CC(=O)c2cccnc2C1=O"
  Cat: "inactive"

Asked: Write down the call the test reported for this molecule. Item: COc1cc(/C=C2\C[C@H]3[C@@H]4CC=C5C[C@@H](O)CC[C@]5(C)[C@H]4CC[C@]3(C)[C@H]2O)ccc1OCCN1CCCC1
Given back: inactive

Asked: Can you check CCN(CC)CCNc1ccc(C)c2sc3cc(Cl)ccc3c(=O)c12 next?
Given back: inactive

Asked: Can you check OC(c1cc(-c2cccc(Cl)c2)nc2ccccc12)C1CCCCN1 (centres undefined) next?
Given back: inactive

----------
System: MOLT-4 leukemia
Assay: NCI tumour cell line growth inhibition, 48 h; in the data active = GI50 below about 0.43 µM; inactive = the rest
Use one of these outcomes when replying: TRUE = active, FALSE = inactive

Use the examples below as a reference point.
- Compound: "CC1(C)N=C(N)N=C(N)N1c1ccc(CCCCc2ccccc2)c(Cl)c1"
  Cat: "TRUE"
- Compound: "O=C(COc1ccc(/C=C2\\COc3ccccc3C2=O)cc1)Nc1nccs1"
  Cat: "FALSE"
- Compound: "NC1=CC(=O)c2cccnc2C1=O"
  Cat: "FALSE"
- Compound: "Cc1ccc(NC(=O)c2ccc(CN3CCN(C)CC3)cc2)cc1Nc1nccc(-c2cccnc2)n1"
  Cat: "FALSE"
- Compound: "CN(C)c1ccc(/C=C/c2ccnc3c(O)cccc23)cc1"
  Cat: "TRUE"

Asked: Write down the call the test reported for this compound. Item: COc1cc([C@@H]2c3cc4c(c(O)c3C[C@H]3COC(=O)[C@@H]32)OCO4)cc(OC)c1OC
Given back: FALSE

Asked: Can you check CO/C=C/C(=O)c1cc2cnc3c(=N)cc(NC(=O)C(C)C)c([nH]1)c23 next?
Given back: TRUE

Asked: Can you check COc1cccc(CCC2CCCN(c3cc(C)nc(N)n3)C2)c1 (stereo not given) next?
Given back: FALSE

Asked: Can you check O=c1cc(-c2ccccc2)oc2ccc(OC/C(=N/O)c3ccccc3)cc12 next?
Given back: FALSE

Asked: Can you check CCOC(=O)[C@@H](C)C[C@H](Cc1ccccc1)NC(=O)c1nc([C@@H](C[C@H](C(C)C)N(C)C(=O)[C@@H](NC(=O)[C@H]2CCCCN2C)C(C)C)OC(C)=O)sc1CCOCc1ccccc1 next?
Given back: TRUE

----------
Test system: SN12C renal
Assay: NCI tumour cell line growth inhibition, 48 h
Quantity Kind: TGI

See these solved cases before continuing.
- Compound: "Nc1ccccc1Nc1ccccc1C(=O)[O-].Nc1ccccc1Nc1ccccc1C(=O)[O-].[Zn+2]"
  Target Under Test: "SN12C renal"
  TGI: "> 100 µM"
- Compound: "COc1cc2nccc(Oc3ccc(NC(=O)NC4CC4)c(Cl)c3)c2cc1C(N)=O"
  Target Under Test: "SN12C renal"
  TGI: "> 100 µM"

Now for another entry.
Asked: Can you look up TGI on SN12C renal for COC(=O)CCC(NC(=S)N/N=C/c1ccccn1)C(=O)OC (stereo not drawn) ?
Given back: > 100 µM

----------
Please respond with reported TGI for every item in the list.
Test system: MDA-MB-231 breast
Test: NCI tumour cell line growth inhibition, 48 h

See these solved cases before continuing.
- Compound: "Cc1ccc(S(=O)(=O)N2CCN(S(=O)(=O)c3ccc(C)cc3)CCN(S(=O)(=O)c3ccc(C)cc3)Cc3cc(C#N)c(C#N)cc3CN(S(=O)(=O)c3ccc(C)cc3)CC2)cc1"
  TGI: "> 100 µM"
- Compound: "CCCC(=O)NC(Nc1cc(C)ccn1)(C(=O)OCC)C(F)(F)F (centres undefined)"
  TGI: "> 100 µM"
- Compound: "CCOC(=O)c1ccc(Nc2sc(C(=O)c3ccc(Br)cc3)c(N)c2C#N)cc1"
  TGI: "> 100 µM"

Asked: Can you look up TGI on MDA-MB-231 breast for Cc1cccc(-c2[nH]ncc2-c2ccc3ncccc3n2)n1 ?
Given back: > 25 µM

----------
Tested on: SN12C renal
Assay: NCI tumour cell line growth inhibition, 48 h; in the data active means GI50 below about 0.43 µM; inactive means the rest
Use one of these outcomes when replying: active, inactive

Asked: Write down the call the test reported for this compound. Item: CCN(CC)CCNc1ccc(C)c2sc3cc(Cl)ccc3c(=O)c12
Given back: inactive

----------
Tested on: SK-OV-3 ovarian
Assay: NCI tumour cell line growth inhibition, 48 h; in the data active = GI50 below about 0.43 µM; inactive = the rest
Use one of these outcomes when replying: active, inactive

- Molecule: "CN(C)c1ccc(/C=C/c2ccnc3c(O)cccc23)cc1"
  Target Under Test: "SK-OV-3 ovarian"
  Cat: "inactive"
- Molecule: "COc1cccc(CCC2CCCN(c3cc(C)nc(N)n3)C2)c1 (centres undefined)"
  Target Under Test: "SK-OV-3 ovarian"
  Cat: "active"
- Molecule: "CC1(C)N=C(N)N=C(N)N1c1ccc(CCCCc2ccccc2)c(Cl)c1"
  Target Under Test: "SK-OV-3 ovarian"
  Cat: "inactive"

Attention now turns to another entry.
Asked: Write down the call the test reported for this molecule. Item: COc1ccc(C(=O)Nc2ncc(Cc3cccc(Cl)c3)s2)cc1OC
Given back: inactive

----------
System: SW-620 colon
Assay: NCI tumour cell line growth inhibition, 48 h
Please respond with reported TGI for every item in the list.

See these solved cases before continuing.
- Molecule: "CCN(CC)Cc1cc(Nc2c3ccccc3nc3c2[nH]c2ccccc23)cc(CN(CC)CC)c1O"
  TGI: "2.47 µM"
- Molecule: "COC1OC(CO)C(O)C(OC(C)=O)C1NC(=O)N(CCCl)N=O (stereo not given)"
  TGI: "> 100 µM"
- Molecule: "S=C(NNC1=NCCCCN1)Nc1ccc(Cl)cc1"
  TGI: "> 100 µM"
- Molecule: "O=c1[nH]nc(Cc2ccc(Cl)cc2)n1/N=C/c1ccco1"
  TGI: "> 100 µM"

Please give TGI, item by item, for the list that follows.
1. C=CC(=O)NCCSCCCOC1(C(=O)O)CC(O)C(NC(C)=O)C(C(O)C(O)CO)O1 (stereo not given)
2. COc1cc(=O)c2c(O)c3c(O)oc(C)cc3c(OC)c2c1
3. N.N.NCCCCCN.O=C([O-])CCl.O=C([O-])CCl.O=C([O-])CCl.O=C([O-])CCl.[Pt+4].[Pt+4]
4. CCOC1=NC(C(F)(F)F)(C(F)(F)F)N=C(N2CCOCC2)O1
5. CC12OOC(c3ccccc31)c1c2ccc2ccccc12 (stereo not given)

Given back:
> 100 µM
> 100 µM
> 100 µM
> 100 µM
3.94 µM

Please give TGI, item by item, for the list that follows.
1. CCc1c(CN)c(CC)c(CNC2=NCCN2)c(CC)c1CNC1=NCCN1
2. O=C(NC(=S)Nc1ccc2c(c1)Sc1ccccc1O2)c1ccc([N+](=O)[O-])cc1
3. CCN1CCCC(C#N)(c2ccccc2)CC1 (stereo not given)
4. NCCCNc1nc2ccccc2c2c(=O)c3cc(F)cc(F)c3sc12
5. N#C[C@H](C(=O)c1ccccc1F)c1nc2ccccc2s1
6. C=C1CC2CCCC12C=O (stereo not given)

Given back:
["> 100 µM", "> 100 µM", "> 100 µM", "3.19 µM", "> 100 µM", "> 10 µM"]
